target: HER2 (Homo sapiens, UniProt P04626); assay: Biacore SPR binding to immobilised HER2; conditions: immobilised HER2
measured.attribute: dissociation rate (s⁻¹)
Give bare numbers, in s⁻¹.

Examples with their reported dissociation rate follow.
# molecule, unit.spec, readout.number
records = [
    ("scFv (TCT)-Acetate DAR 15 (conjugate) scFv: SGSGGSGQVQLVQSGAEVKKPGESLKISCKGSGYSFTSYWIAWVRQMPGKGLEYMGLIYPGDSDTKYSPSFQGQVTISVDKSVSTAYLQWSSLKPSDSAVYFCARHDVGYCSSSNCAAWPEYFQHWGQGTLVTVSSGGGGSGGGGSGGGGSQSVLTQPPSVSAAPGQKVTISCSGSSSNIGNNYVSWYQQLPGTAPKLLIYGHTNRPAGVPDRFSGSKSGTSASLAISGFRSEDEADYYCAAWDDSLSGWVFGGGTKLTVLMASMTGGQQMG", "s⁻¹", 0.0171),
    ("scFv (TCT)-MMAF-C5 1 DAR 5.6 (conjugate) scFv: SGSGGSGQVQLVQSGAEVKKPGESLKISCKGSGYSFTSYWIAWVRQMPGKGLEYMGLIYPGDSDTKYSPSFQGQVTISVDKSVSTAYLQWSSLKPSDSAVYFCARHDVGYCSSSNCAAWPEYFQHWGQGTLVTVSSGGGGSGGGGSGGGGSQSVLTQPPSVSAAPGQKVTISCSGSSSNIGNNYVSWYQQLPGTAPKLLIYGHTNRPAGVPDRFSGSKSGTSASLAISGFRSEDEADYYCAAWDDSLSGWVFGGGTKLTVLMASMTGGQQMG", "s⁻¹", 0.0042),
    ("scFv (TCT1067)-DM1-dPEG12 DAR 7 (conjugate) scFv: SGSGGSGQVQLVQSGAEVKKPGESLKISCKGSGYSFTSYWIAWVRQMPGKGLEYMGLIYPGDSDTKYSPSFQGQVTISVDKSVSTAYLQWSSLKPSDSAVYFCARHDVGYCTDRTCAAWPEWLGVWGQGTLVTVSSGGGGSGGGGSGGGGSQSVLTQPPSVSAAPGQKVTISCSGSSSNIGNNYVSWYQQLPGTAPKLLIYGHTNRPAGVPDRFSGSKSGTSASLAISGFRSEDEADYYCASWDYTLSGWVFGGGTKLTVLMASMTGGQQMG", "s⁻¹", "2.7e-05"),
]

Attention now shifts to the item below.
So what's the measured dissociation rate for this one? scFv (TCT1067)-Auristatin-F-C5 DAR 3.3 (conjugate) scFv: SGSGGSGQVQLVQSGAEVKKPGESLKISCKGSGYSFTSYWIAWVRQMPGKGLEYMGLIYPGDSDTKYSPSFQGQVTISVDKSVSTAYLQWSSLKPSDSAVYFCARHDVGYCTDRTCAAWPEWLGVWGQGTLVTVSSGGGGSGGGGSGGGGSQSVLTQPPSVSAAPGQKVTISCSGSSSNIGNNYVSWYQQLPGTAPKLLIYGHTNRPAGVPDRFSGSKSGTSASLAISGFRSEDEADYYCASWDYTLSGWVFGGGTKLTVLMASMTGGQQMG
1.82e-05

The measured values listed here are drawn from patent US11202837B2.
